Sourced from the supplement of paper PMC10567573

B1: RSPH3 (parent)
chain: KAASLARNLAKRRRTYLGGAAGRS

variants of: B1; experiment: protein stability index of a GFP-peptide fusion (GPS, HEK-293T) (PSI 1-6); higher = more stable; details: c terminus: a fixed tail appended;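 further: lentivirally expressed fusions sorted by FACS into six bins by GFP to DsRed ratio, PSI derived from sequencing read proportions per bin multiplied by bin number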
Classification field: enter label 1 for protein stability index values not below 3, label 0 for values below it.

- mutation-notation: "R7S"
  assigned-category: "label 0"
- mutation-notation: "G19H"
  assigned-category: "label 0"
- mutation-notation: "R23M"
  assigned-category: "label 0"
- mutation-notation: "A10C"
  assigned-category: "label 0"
- mutation-notation: "R23C"
  assigned-category: "label 0"
- mutation-notation: "G18T"
  assigned-category: "label 0"
- mutation-notation: "G18M"
  assigned-category: "label 0"
- mutation-notation: "S4I"
  assigned-category: "label 0"
- mutation-notation: "S4W"
  assigned-category: "label 0"
- mutation-notation: "G19C"
  assigned-category: "label 0"
- mutation-notation: "R12I"
  assigned-category: "label 0"
- mutation-notation: "R14D"
  assigned-category: "label 0"
- mutation-notation: "S4A"
  assigned-category: "label 0"
- mutation-notation: "R12N"
  assigned-category: "label 0"
- mutation-notation: "S4G"
  assigned-category: "label 1"
- mutation-notation: "R7G"
  assigned-category: "label 0"
- mutation-notation: "S4H"
  assigned-category: "label 0"
- mutation-notation: "G19T"
  assigned-category: "label 0"
- mutation-notation: "Y16H"
  assigned-category: "label 1"
- mutation-notation: "L5F"
  assigned-category: "label 0"
- mutation-notation: "A20T"
  assigned-category: "label 0"
- mutation-notation: "N8Q"
  assigned-category: "label 0"
- mutation-notation: "A10N"
  assigned-category: "label 0"
- mutation-notation: "R23H"
  assigned-category: "label 0"
- mutation-notation: "A3P"
  assigned-category: "label 1"
- mutation-notation: "T15D"
  assigned-category: "label 0"
- mutation-notation: "A2I"
  assigned-category: "label 0"
- mutation-notation: "R7L"
  assigned-category: "label 0"
- mutation-notation: "R13N"
  assigned-category: "label 1"
- mutation-notation: "A10G"
  assigned-category: "label 1"
- mutation-notation: "R14Q"
  assigned-category: "label 0"
- mutation-notation: "K11W"
  assigned-category: "label 0"
- mutation-notation: "K11I"
  assigned-category: "label 0"
- mutation-notation: "N8K"
  assigned-category: "label 0"
- mutation-notation: "G18A"
  assigned-category: "label 0"
- mutation-notation: "N8D"
  assigned-category: "label 1"
- mutation-notation: "L9W"
  assigned-category: "label 0"
- mutation-notation: "L17N"
  assigned-category: "label 1"
- mutation-notation: "K11G"
  assigned-category: "label 0"
- mutation-notation: "R13F"
  assigned-category: "label 1"
- mutation-notation: "L5C"
  assigned-category: "label 0"
- mutation-notation: "A3E"
  assigned-category: "label 1"
- mutation-notation: "T15F"
  assigned-category: "label 0"
- mutation-notation: "S4R"
  assigned-category: "label 0"
- mutation-notation: "Y16M"
  assigned-category: "label 0"
- mutation-notation: "K11F"
  assigned-category: "label 0"
- mutation-notation: "G19W"
  assigned-category: "label 0"
- mutation-notation: "A6C"
  assigned-category: "label 0"
- mutation-notation: "S4Y"
  assigned-category: "label 0"
- mutation-notation: "A10D"
  assigned-category: "label 1"
- mutation-notation: "S4E"
  assigned-category: "label 0"
- mutation-notation: "A20D"
  assigned-category: "label 1"
- mutation-notation: "Y16F"
  assigned-category: "label 1"
- mutation-notation: "L17E"
  assigned-category: "label 0"
- mutation-notation: "S4D"
  assigned-category: "label 1"
- mutation-notation: "R23D"
  assigned-category: "label 0"
- mutation-notation: "G18Y"
  assigned-category: "label 1"
- mutation-notation: "Y16A"
  assigned-category: "label 1"
- mutation-notation: "G22F"
  assigned-category: "label 0"
- mutation-notation: "L5G"
  assigned-category: "label 1"
- mutation-notation: "G22N"
  assigned-category: "label 1"
- mutation-notation: "A2F"
  assigned-category: "label 0"
- mutation-notation: "G18K"
  assigned-category: "label 0"
- mutation-notation: "R13A"
  assigned-category: "label 0"
- mutation-notation: "L9N"
  assigned-category: "label 1"
- mutation-notation: "A3Y"
  assigned-category: "label 0"
- mutation-notation: "R7E"
  assigned-category: "label 1"
- mutation-notation: "A6R"
  assigned-category: "label 0"
- mutation-notation: "A21W"
  assigned-category: "label 0"
- mutation-notation: "R12Y"
  assigned-category: "label 0"
- mutation-notation: "A2T"
  assigned-category: "label 1"
- mutation-notation: "R13T"
  assigned-category: "label 0"
- mutation-notation: "R7T"
  assigned-category: "label 0"
- mutation-notation: "A20W"
  assigned-category: "label 0"
- mutation-notation: "G22H"
  assigned-category: "label 0"
- mutation-notation: "A6H"
  assigned-category: "label 0"
- mutation-notation: "A21P"
  assigned-category: "label 0"
- mutation-notation: "R7D"
  assigned-category: "label 1"
- mutation-notation: "A2N"
  assigned-category: "label 1"
- mutation-notation: "G22D"
  assigned-category: "label 0"
- mutation-notation: "L5D"
  assigned-category: "label 1"
- mutation-notation: "R13V"
  assigned-category: "label 0"
- mutation-notation: "S24A"
  assigned-category: "label 0"
